- assay system: Tyk2 JH2 Pseudokinase (Homo sapiens)
- Construct: purchased Eurofins DiscoverX Corporation (CRO); host or cells: E. coli BL21-derived host (T7 phage) or HEK-293 cells
- Sequence (P29597 589-875 limits assumed): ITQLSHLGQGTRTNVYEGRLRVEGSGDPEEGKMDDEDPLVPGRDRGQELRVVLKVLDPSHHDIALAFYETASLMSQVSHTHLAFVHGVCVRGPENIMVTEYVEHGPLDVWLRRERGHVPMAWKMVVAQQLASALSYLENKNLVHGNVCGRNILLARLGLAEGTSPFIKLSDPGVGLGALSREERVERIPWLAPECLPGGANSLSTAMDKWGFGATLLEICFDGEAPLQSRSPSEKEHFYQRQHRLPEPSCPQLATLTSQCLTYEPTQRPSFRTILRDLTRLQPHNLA
- experiment summary: KdELECT Competition Binding Assay
- condition description: 11-point 3-fold dilution series; performed by Eurofins DiscoverX
pKd: −log10 of the molar value.
attribute measured: pKd

As a guide, the following entries are already answered.
compound=[2H]C([2H])([2H])NC(=O)c1nnc(Nc2ccc(N3CC(OC)C3)cn2)cc1Nc1cccc(-c2ncn(C)n2)c1OC assay_system="Tyk2 JH2 Pseudokinase (Homo sapiens)" result_number=11.28
compound=CNC(=O)c1nnc(Nc2ccc(N3CC(F)(F)C3)cn2)cc1Nc1cccc(-c2ncn(C)n2)c1OC assay_system="Tyk2 JH2 Pseudokinase (Homo sapiens)" result_number=11.20

[A] CNC(=O)c1nnc(Nc2ccc(N3CCC3)cn2)cc1Nc1cccc(-c2ncn(C)n2)c1OC
[B] CNC(=O)c1nnc(Nc2cccc(N3CCC3)n2)cc1Nc1cccc(-c2ncn(C)n2)c1OC
[C] [2H]C([2H])([2H])NC(=O)c1nnc(Nc2ccc(C3(O)COC3)cn2)cc1Nc1cccc(-c2ncn(C)n2)c1OC
Task: Sort (3 molecules) by pKd: min first. Reply: labels, ordered per the request.
Output: A, B, C
